- System: BDF1 mice, B16 melanoma ip, median survival T/C
- TEST DESCRIPTION: NCI In Vivo Anticancer Drug Screen. Data for tumor model B16 Melanoma (intraperitoneal) in B6D2F1 (BDF1) mice
- ASSAY CONTEXT: endpoint: median survival time; dose: 25.0 mg/kg/injection; schedule: Q01DX009 (ip); vehicle: saline with Tween-80
Inconclusive results and toxic doses are left out. The calls were made as follows: active = survival T/C of 150% or more; inactive = T/C below 125% in these data.
Returns: one label drawn from active, inactive

Input: Recorded test outcome, item COc1ccccc1NC(=O)Nc1cccc(Cl)c1
Output: inactive

Input: Recorded test outcome, item CCCCNC(C)(C)C(SSSC(c1cccs1)C(C)(C)NCCCC)c1cccs1 (stereo unspecified)
Output: inactive

Input: Recorded test outcome, item NC(=O)C(Br)CBr (stereo unspecified)
Output: inactive

Input: Recorded test outcome, item COc1cc(C(C)(C)C)cc(OC)c1C(O)(c1c(OC)cc(C(C)(C)C)cc1OC)c1c(OC)cc(C(C)(C)C)cc1OC
Output: inactive

Input: Recorded test outcome, item Cc1ccc(Cl)cc1NC(=O)CCl
Output: inactive

Input: Recorded test outcome, item CCOC(=O)Nc1nccs1
Output: inactive

Input: Recorded test outcome, item O=C(Nc1ccccc1C(=O)O)c1cc([N+](=O)[O-])cc([N+](=O)[O-])c1
Output: inactive

Input: Recorded test outcome, item O=C(Nc1ccc(C2=NCCN2)cc1)c1ccc(C(=O)Nc2ccc(C3=NCCN3)cc2)c(Cl)c1
Output: inactive

Input: Recorded test outcome, item CC(=O)O[C@@H]1[C@@H](O)C2=C3[C@]4(C)[C@@H]1C(C)(C)C(=O)C[C@@H]4[C@]3(O)[C@H](OC(C)=O)[C@@]1(C[C@@H]1C)C2=O
Output: inactive

Input: Recorded test outcome, item COc1ccc(NC(=O)Oc2ccccc2-c2ccccc2)cc1
Output: active

Input: Recorded test outcome, item C[CH2][Pb]([Br])([CH2]C)[CH2]C
Output: inactive

Input: Recorded test outcome, item CC(=O)Nc1ccc(S(=O)(=O)N/N=C\c2ccc(Cl)c(Cl)c2)cc1
Output: inactive

Input: Recorded test outcome, item Cc1cc2ccc(OC(=O)c3ccc(N=C(N)N)cc3)cc2oc1=O
Output: inactive

* * *

- System: BDF1 mice, B16 melanoma ip, median survival T/C
- TEST DESCRIPTION: NCI In Vivo Anticancer Drug Screen. Data for tumor model B16 Melanoma (intraperitoneal) in B6D2F1 (BDF1) mice
- ASSAY CONTEXT: endpoint: median survival time; dose: 50.0 mg/kg/injection; schedule: Q04DX003 (ip); vehicle: saline; higher = longer survival
Toxic doses and inconclusive results are not listed.
Entries and their measured T/C follow.

Examples with answers:
- MOLECULE: "Cc1cc(NC(=O)NCc2ccc(N3C(N)=NC(N)=NC3(C)C)cc2)ccc1S(=O)(=O)F"
  TARGET OR TEST SYSTEM: "BDF1 mice, B16 melanoma ip, median survival T/C"
  T/C: "109 % of control"
- MOLECULE: "CC(N)CCc1ccccc1 (stereo unspecified)"
  TARGET OR TEST SYSTEM: "BDF1 mice, B16 melanoma ip, median survival T/C"
  T/C: "111 % of control"
- MOLECULE: "O=C(CCCCC(=O)Nc1ccc(C2=NCCN2)cc1)Nc1ccc(C2=NCCN2)cc1"
  TARGET OR TEST SYSTEM: "BDF1 mice, B16 melanoma ip, median survival T/C"
  T/C: "96 % of control"
- MOLECULE: "CC#CS(=O)(=O)C(C)(C)C"
  TARGET OR TEST SYSTEM: "BDF1 mice, B16 melanoma ip, median survival T/C"
  T/C: "104 % of control"

Reported T/C of CN(C)CCCNC(=S)S : 94 % of control

Reported T/C of FC(F)(F)c1ccc2c(c1)N(CCCNCCN1CCOCC1)c1ccccc1S2 : 90 % of control

* * *

- System: BDF1 mice, B16 melanoma ip, median survival T/C
- TEST DESCRIPTION: NCI In Vivo Anticancer Drug Screen. Data for tumor model B16 Melanoma (intraperitoneal) in B6D2F1 (BDF1) mice
- ASSAY CONTEXT: endpoint: median survival time; dose: 200.0 mg/kg/injection; schedule: Q01DX009 (ip); vehicle: saline; higher = longer survival
Toxic doses and inconclusive results are not listed.
METRIC NAME: T/C

- COMPOUND: "c1ccc(OP2OCCO2)cc1"
  TARGET OR TEST SYSTEM: "BDF1 mice, B16 melanoma ip, median survival T/C"
  T/C: "91 % of control"
- COMPOUND: "CN(C)CCOc1ccccc1Cc1ccccc1"
  TARGET OR TEST SYSTEM: "BDF1 mice, B16 melanoma ip, median survival T/C"
  T/C: "94 % of control"
- COMPOUND: "CNCCN(C)CCN(C)Cc1ccc(OC)cc1"
  TARGET OR TEST SYSTEM: "BDF1 mice, B16 melanoma ip, median survival T/C"
  T/C: "106 % of control"
- COMPOUND: "C=CCc1cn(C2CC(O)C(CO)O2)c(=O)[nH]c1=O (centres undefined)"
  TARGET OR TEST SYSTEM: "BDF1 mice, B16 melanoma ip, median survival T/C"
  T/C: "105 % of control"
- COMPOUND: "CC1CCC(O)C1O (centres undefined)"
  TARGET OR TEST SYSTEM: "BDF1 mice, B16 melanoma ip, median survival T/C"
  T/C: "120 % of control"

Summary: O=C1C=CC(=O)N1Cc1ccco1 , BDF1 mice, B16 melanoma ip, median survival T/C, T/C = 113 % of control

Summary: CN=C(N)NC , BDF1 mice, B16 melanoma ip, median survival T/C, T/C = 104 % of control

Summary: N=C(N)SCc1cccc2c(=O)cc(-c3ccccc3)oc12 , BDF1 mice, B16 melanoma ip, median survival T/C, T/C = 86 % of control

Summary: CC(C)=CCC1=C(O)c2ccccc2C(=O)C1=O , BDF1 mice, B16 melanoma ip, median survival T/C, T/C = 119 % of control

Summary: O=P(O)(O)OCC(O)CCl (centres undefined) , BDF1 mice, B16 melanoma ip, median survival T/C, T/C = 103 % of control

* * *

- System: BDF1 mice, B16 melanoma ip, median survival T/C
- TEST DESCRIPTION: NCI In Vivo Anticancer Drug Screen. Data for tumor model B16 Melanoma (intraperitoneal) in B6D2F1 (BDF1) mice
- ASSAY CONTEXT: endpoint: median survival time; dose: 50.0 mg/kg/injection; schedule: Q01DX009 (ip); vehicle: water; higher = longer survival
Inconclusive results and toxic doses are left out.
METRIC NAME: T/C

Examples with answers:
- MOLECULE: "CC1(C)C=CC2=C(O1)C(=O)c1ccccc1C2=O"
  T/C: "99 % of control"
- MOLECULE: "NNC(=O)c1ccccn1"
  T/C: "113 % of control"
- MOLECULE: "CCCCN=[N+]=[N-]"
  T/C: "98 % of control"
- MOLECULE: "CC(=O)Oc1ccc(N2C(=O)C3C(C2=O)C2c4ccccc4C3C3CCCCN32)cc1 (configuration not stated) (tested in a mixture with another compound)"
  T/C: "104 % of control"
- MOLECULE: "OCC#CCOCC(O)CCl (configuration not stated)"
  T/C: "98 % of control"

Reported T/C of CC(=O)C(=O)C1=C2CCCN2CCc2cc3c(cc21)OCO3 : 117 % of control

Reported T/C of Oc1cc2c3c(c1)c1cc4c(cc1c[n+]3CC2)OCO4 : 124 % of control

* * *

- Test system: BDF1 mice, B16 melanoma ip, median survival T/C
- TEST DESCRIPTION: NCI In Vivo Anticancer Drug Screen. Data for tumor model B16 Melanoma (intraperitoneal) in B6D2F1 (BDF1) mice
- ASSAY CONTEXT: endpoint: median survival time; dose: 100.0 mg/kg/injection; schedule: Q04DX003 (ip); vehicle: Klucel (hydroxypropylcellulose) (HPC); higher = longer survival
Toxic doses and inconclusive results are not listed.
METRIC NAME: T/C

- MOLECULE: "CCOC(=O)/C(Cc1cc[n+]([O-])c2ccccc12)=N/O"
  OBSERVED VALUE: "88 % of control"
- MOLECULE: "O=C(NCCCl)N(c1ccccc1)c1cccc(C(F)(F)F)c1"
  OBSERVED VALUE: "114 % of control"
- MOLECULE: "CNc1ccc(S(=O)(=O)O)cc1"
  OBSERVED VALUE: "100 % of control"
- MOLECULE: "COc1ccc(N=C(C(=Nc2ccc(OC)cc2)c2ccccc2)c2ccccc2)cc1"
  OBSERVED VALUE: "102 % of control"
- MOLECULE: "COc1ccc(C(C#N)N2CCOCC2)cc1 (stereo not given)"
  OBSERVED VALUE: "97 % of control"
- MOLECULE: "S=C1SCN(C2CCCCC2)CN1C1CCCCC1"
  OBSERVED VALUE: "93 % of control"
- MOLECULE: "Cc1cc(C)c(NC(=O)NC(C)C)c(C)c1"
  OBSERVED VALUE: "100 % of control"
- MOLECULE: "O=[N+]([O-])c1ccc(/C=C/c2ccccc2)c([N+](=O)[O-])c1"
  OBSERVED VALUE: "97 % of control"

Reported T/C of Cc1ccc(C(=O)/C(=C/c2ccccc2)c2ccccc2)cc1 : 113 % of control

Reported T/C of BrC1(Br)CC1(c1ccccc1)c1ccccc1 : 105 % of control

Reported T/C of CC(=O)Nc1ccc(OC(=O)Nc2ccccc2Cl)cc1 : 93 % of control
